Numbers sourced from patent US8354441B2.

Exercise: for every item that follows, state its recorded Ki.
- System tested: mouse TAAR1 (Mus musculus, UniProt Q923Y8)
- Construct: expressed in transfected cells; host or cells: HEK293 (ATCC # CRL-1573), stably transfected with pIRESneo2 expression plasmid
- Sequence (Q923Y8 whole entry): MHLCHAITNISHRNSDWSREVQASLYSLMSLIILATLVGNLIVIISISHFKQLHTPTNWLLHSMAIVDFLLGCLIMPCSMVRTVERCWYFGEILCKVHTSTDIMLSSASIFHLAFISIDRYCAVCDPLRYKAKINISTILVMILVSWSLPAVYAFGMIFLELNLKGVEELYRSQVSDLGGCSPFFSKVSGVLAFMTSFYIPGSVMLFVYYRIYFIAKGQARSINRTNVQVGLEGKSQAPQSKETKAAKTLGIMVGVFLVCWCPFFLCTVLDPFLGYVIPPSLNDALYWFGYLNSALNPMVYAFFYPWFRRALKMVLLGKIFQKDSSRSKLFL
- Experimental protocol: TAAR1 radioligand binding with [3H]-rac-2-(1,2,3,4-tetrahydro-1-naphthyl)-2-imidazoline, membranes of stably transfected HEK293 cells
- Stated conditions: first value of the cell, read-out: Ki (μM) mouse/rat: mouse
- Procedure: For the construction of expression plasmids the coding sequences of human, rat and mouse TAAR 1 were amplified from genomic DNA essentially as described by Lindemann et al.. […] Cells at confluence were rinsed with ice-cold phosphate buffered saline without Ca^2+ and Mg^2+ containing 10 mM EDTA and pelleted by centrifugation at 1000 rpm for 5 min at 4° C. […] Protein concentration was determined by the method of Pierce (Rockford, Ill.). […]
Quick reminder: number only, in µM, skip the unit.

Exercise: Please report the recorded Ki for NC1=N[C@@H](CCc2ccc(NC(=O)C3CCC3)cc2)CO1 .
Solution: 0.0026

Exercise: For Cc1nc(C(=O)Nc2ccc(CC[C@H]3COC(N)=N3)cc2)c(C(F)(F)F)o1 then?
Solution: 0.0027

Exercise: For CCCc1ccc(C(=O)Nc2ccc(CC[C@H]3COC(N)=N3)cc2)cc1 then?
Solution: 0.0002

Exercise: For NC1=N[C@@H](CCc2ccc(NC(=O)Nc3ccc(Cl)cn3)cc2)CO1 then?
Solution: 0.0001

Exercise: For NC1=N[C@@H](CCc2ccc(NC(=O)c3cc(Cl)cc(Cl)n3)cc2)CO1 then?
Solution: 0.0006

Exercise: For Cc1nc(C(=O)Nc2ccc(CC[C@H]3COC(N)=N3)cc2)c(C)o1 then?
Solution: 0.0059

Exercise: For NC1=N[C@@H](CCc2ccc(NS(=O)(=O)c3ccc(Cl)c(Cl)c3)cc2)CO1 then?
Solution: 0.009

Exercise: For COc1ccc(CC(=O)Nc2ccc(CC[C@H]3COC(N)=N3)cc2)cc1 then?
Solution: 0.0043

Exercise: For C[C@H]1OC(N)=N[C@H]1CCc1ccc(NC(=O)c2ccc(Cl)cc2)cc1 then?
Solution: 0.0076
